System: HepaRG cells
Assay: Incubations with HepaRG cells, metabolite identification by LC-HRMS/MS
Assay type: in vitro ADME, human
Settings: 25 μM parent NPS, 24 h, cell culture medium, one replicate of n = 3; n.d. = not detected
Measured Absolute peak area, HepaRG [25 μM] accompanies every entry in the list below.
Measured Attribute: Absolute peak area, HepaRG [25 μM]

                                   compound  measured_target                  measured_attribute       val
0  COC(=O)[C@@H](NC(=O)c1nn(CCCCO)c2ccccc12)C(C)(C)C     HepaRG cells  Absolute peak area, HepaRG [25 μM]  9.30E+04
1  COc1ccccc1CNC(C)Cc1ccc(OC)c(OC)c1 (stereo not drawn)     HepaRG cells  Absolute peak area, HepaRG [25 μM]  1.48E+09
2  CCN(CC)C(=O)[C@@H]1C=C2c3cccc4[nH]cc(c34)C[C@H]2NC1     HepaRG cells  Absolute peak area, HepaRG [25 μM]  1.75E+07

Origin of the recorded values: paper PMC7380166
